The values you see were collected from patent US8501683B2.

Lab note: IC50 readings collected with bile salt export pump (BSEP) (Homo sapiens) for the following molecules.
Sequence (O95342 whole entry): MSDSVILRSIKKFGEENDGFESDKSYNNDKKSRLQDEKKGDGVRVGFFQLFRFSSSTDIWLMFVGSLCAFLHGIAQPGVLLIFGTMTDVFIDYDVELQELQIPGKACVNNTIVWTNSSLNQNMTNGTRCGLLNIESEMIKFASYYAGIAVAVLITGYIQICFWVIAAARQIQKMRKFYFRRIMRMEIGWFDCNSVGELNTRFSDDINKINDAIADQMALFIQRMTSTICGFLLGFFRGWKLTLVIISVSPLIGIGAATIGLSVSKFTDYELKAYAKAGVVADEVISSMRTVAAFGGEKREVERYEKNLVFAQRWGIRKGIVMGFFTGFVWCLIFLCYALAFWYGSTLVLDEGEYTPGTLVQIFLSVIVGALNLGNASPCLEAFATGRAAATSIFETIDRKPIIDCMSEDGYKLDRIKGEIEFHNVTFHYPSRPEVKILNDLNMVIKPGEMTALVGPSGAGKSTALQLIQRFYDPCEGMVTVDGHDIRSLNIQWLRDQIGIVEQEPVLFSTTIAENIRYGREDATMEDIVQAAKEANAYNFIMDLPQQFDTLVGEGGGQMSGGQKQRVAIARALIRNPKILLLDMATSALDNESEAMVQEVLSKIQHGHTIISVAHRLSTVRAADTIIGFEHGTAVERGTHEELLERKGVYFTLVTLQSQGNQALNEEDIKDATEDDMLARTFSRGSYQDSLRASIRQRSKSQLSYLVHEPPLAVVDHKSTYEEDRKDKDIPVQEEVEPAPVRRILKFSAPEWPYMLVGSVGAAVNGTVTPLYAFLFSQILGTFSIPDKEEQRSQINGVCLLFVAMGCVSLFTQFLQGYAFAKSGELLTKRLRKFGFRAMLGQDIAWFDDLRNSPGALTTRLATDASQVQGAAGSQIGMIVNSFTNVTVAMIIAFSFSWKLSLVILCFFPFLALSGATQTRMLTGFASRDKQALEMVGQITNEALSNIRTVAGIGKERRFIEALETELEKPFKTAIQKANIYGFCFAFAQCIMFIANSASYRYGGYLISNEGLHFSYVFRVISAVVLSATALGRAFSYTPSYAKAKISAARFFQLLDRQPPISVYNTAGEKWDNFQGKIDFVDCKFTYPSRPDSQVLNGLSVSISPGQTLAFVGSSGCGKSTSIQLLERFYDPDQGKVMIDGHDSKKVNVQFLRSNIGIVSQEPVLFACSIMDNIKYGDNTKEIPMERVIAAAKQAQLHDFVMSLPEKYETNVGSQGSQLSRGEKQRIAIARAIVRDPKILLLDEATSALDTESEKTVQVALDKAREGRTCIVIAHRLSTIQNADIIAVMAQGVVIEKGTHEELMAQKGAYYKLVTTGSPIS
Square brackets hold non-standard residues; d marks the D form. Peptide text beside a SMILES is read from it. MeBmt = C/C=C/C[C@@H](C)[C@@H](O)[C@H](NC)C(=O)O; NEtVal = CCN[C@H](C(=O)O)C(C)C; NMeL = CN[C@@H](CC(C)C)C(=O)O; NMeV = CN[C@H](C(=O)O)C(C)C; dHiv = CC(C)[C@@H](O)C(=O)O; dNMeA = CN[C@H](C)C(=O)O; Abu = CC[C@H](N)C(=O)O
All answers are understood in nM, so give the number only.

State its IC50 for this molecule: C/C=C/C[C@@H](C)[C@@H](O)[C@H]1C(=O)N[C@@H](C(C)C)C(=O)N(C)[C@H](C)C(=O)N(C)[C@@H](C(C)C)C(=O)N[C@@H]([C@@H](C)CC)C(=O)N(C)[C@@H](CC(C)C)C(=O)NCC(=O)O[C@H](C(C)C)C(=O)N(C)[C@@H](CC(C)C)C(=O)N[C@@H](CC(C)C)C(=O)N(C)[C@@H](C(C)C)C(=O)N1C [(Ic)] (cyclo(G[dHiv][NMeL]L[NMeV][MeBmt]V[dNMeA][NMeV]I[NMeL]))
160

Report measured IC50; entry is C/C=C/C[C@@H](C)[C@@H](O)[C@H]1C(=O)N[C@@H](CC)C(=O)N(C)[C@H](C)C(=O)N(CC)[C@@H](C(C)C)C(=O)N[C@@H](CC(C)C)C(=O)N(C)[C@@H](CC(C)C)C(=O)N[C@@H](C)C(=O)O[C@H](C(C)C)C(=O)N(C)[C@@H](CC(C)C)C(=O)N[C@@H](CC(C)C)C(=O)N(C)[C@@H](C(C)C)C(=O)N1C [(Ib)] (cyclo(A[dHiv][NMeL]L[NMeV][MeBmt][Abu][dNMeA][NEtVal]L[NMeL]))
150

Report IC50 for C/C=C/C[C@@H](C)[C@@H](O)[C@H]1C(=O)N[C@@H](C(C)C)C(=O)N(C)[C@H](C)C(=O)N(CC)[C@@H](C(C)C)C(=O)N[C@@H](CC(C)C)C(=O)N(C)[C@@H](CC(C)C)C(=O)N[C@@H](C)C(=O)O[C@H](C(C)C)C(=O)N(C)[C@@H](CC(C)C)C(=O)N[C@@H](CC(C)C)C(=O)N(C)[C@@H](C(C)C)C(=O)N1C [(Ih)] (cyclo(A[dHiv][NMeL]L[NMeV][MeBmt]V[dNMeA][NEtVal]L[NMeL]))
300
